Catalogue of pKi readings, one per entry.
# target-of-assay: Synaptic vesicle glycoprotein 2A (Mus musculus)
# Sequence (Q9JIS5 whole entry): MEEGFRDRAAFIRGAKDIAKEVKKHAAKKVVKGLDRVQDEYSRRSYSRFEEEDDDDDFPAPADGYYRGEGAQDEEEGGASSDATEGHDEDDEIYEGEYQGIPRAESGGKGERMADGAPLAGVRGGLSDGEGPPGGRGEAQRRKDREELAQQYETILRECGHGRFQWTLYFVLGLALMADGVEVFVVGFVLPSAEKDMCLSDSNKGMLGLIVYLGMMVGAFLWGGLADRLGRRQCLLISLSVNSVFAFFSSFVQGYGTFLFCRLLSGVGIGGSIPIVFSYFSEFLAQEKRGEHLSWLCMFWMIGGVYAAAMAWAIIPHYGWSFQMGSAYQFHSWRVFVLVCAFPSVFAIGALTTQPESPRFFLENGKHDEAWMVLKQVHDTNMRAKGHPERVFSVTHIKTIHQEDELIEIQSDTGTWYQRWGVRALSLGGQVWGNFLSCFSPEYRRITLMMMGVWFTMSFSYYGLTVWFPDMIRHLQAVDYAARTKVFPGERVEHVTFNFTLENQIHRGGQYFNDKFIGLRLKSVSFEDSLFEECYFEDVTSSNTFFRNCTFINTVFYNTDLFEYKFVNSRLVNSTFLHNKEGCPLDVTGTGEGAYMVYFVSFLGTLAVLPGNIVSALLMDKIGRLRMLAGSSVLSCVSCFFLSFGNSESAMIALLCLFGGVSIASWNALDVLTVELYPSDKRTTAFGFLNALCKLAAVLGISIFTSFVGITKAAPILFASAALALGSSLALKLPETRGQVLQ
# experiment-notes: Binding affinity to mouse SV2A in presence of levetiracetam by radioligand binding assay
pKi: −log10 of the molar value.
quantity: pKi

structure_as_smiles=C[C@@H](C(=O)NCc1ccccc1)N1C(=O)CCC1=O reading="< 3.60"
structure_as_smiles=C[C@H](C(=O)NCc1ccccc1)N1C(=O)CCC1=O reading="< 3.60"
